Tested on: MS2 coat protein
Experiment: apparent Kd, MS2 coat protein; higher = weaker binding; RNA-MaP array; FMN 200 µM where present
Conditions: ligand present: flavin mononucleotide; designed as: OFF switch for flavin mononucleotide
apparent Kd for assorted sequences
quantity measured: apparent Kd (µM)

monomer sequence	quantity measured	value
GUAUGGGUAGAAGGACAUGAGGAUCACCCAUGUUGUGUGUCUAAGGAUAUUAGAGAAGAUUGACGUAAGAAGGUAGAUGUGUGG	apparent Kd	0.0808
GUACUGUAGUGAGGAUAUACGAGAUCGAUAGAUCGGCGAUCCAUUAAUACAUGAGGAUCACCCAUGUAGAAGGCACUUCAGUAC	apparent Kd	0.0784
UCAUACAUGACAUGACAUGACAUGAGGAUCACCCAUGUUUACAAGGAUAUGUACAUGAAACAUGUACAGAAGGUGUAUUGGACU	apparent Kd	0.15
CGUGCGUAUGUGAGGAUAUGCUGGUCCUUGGCUCGGCAGAAGGCACAUGAGGAUCACCCAUGUGGUGUCGUACA	apparent Kd	0.156

Recorded values, source the EternaBench riboswitch data.
